Cited source: paper PMC9182104

Molecular target: PDE5A (Homo sapiens)
Assay: Enzymatic assay of PDE5A (3H-cGMP substrate)
Assay type: biochemical
Details: 0.25 h, PDE5, compound at 0.1 μM; read-out: Inhibition Ratio (%) 0.1 μM
parameter: inhibition at 0.1 µM (%)

Would you please look over these solved cases?
compound	unitsLabel	quantitativeReadout
OCCN(CCO)c1nc(N2CCSCC2)c2nc(N(CCO)CCO)nc(N3CCSCC3)c2n1 [4b]	%	53
OCCN(CCO)c1nc(N2CCC(F)(F)CC2)c2nc(N(CCO)CCO)nc(N3CCC(F)(F)CC3)c2n1 [4d]	%	41
OCC1CCCN(c2nc(N3CCC(F)CC3)c3nc(N4CCCC(CO)C4)nc(N4CCC(F)CC4)c3n2)C1 (centres unmarked) [6b]	%	0
OC[C@H]1CCCN(c2nc(N3CCSC3)c3nc(N4CCC[C@H](CO)C4)nc(N4CCSC4)c3n2)C1 [(S)-5b]	%	13
O[C@@H]1CCCN(c2nc(N3CCC(F)CC3)c3nc(N4CCC[C@@H](O)C4)nc(N4CCC(F)CC4)c3n2)C1 [(R)-6a]	%	8
O[C@H]1CCN(c2nc(N3CCSC3)c3nc(N4CC[C@H](O)C4)nc(N4CCSC4)c3n2)C1 [(S)-5c]	%	36

1 = O[C@@H]1CCN(c2nc(N3CCSC3)c3nc(N4CC[C@@H](O)C4)nc(N4CCSC4)c3n2)C1 [(R)-5c]
2 = C[C@H]1CCCN1c1nc(N(CCO)CCO)nc2c(N3CCC[C@@H]3C)nc(N(CCO)CCO)nc12 [(S)-4f]
Among 1 and 2 , whose measured inhibition at 0.1 µM is the smaller figure? Record your answer as the label of the chosen record.
2

---

Target: PDE5A (Homo sapiens, UniProt O76074)
Assay: Enzymatic assay of PDE5A (3H-cGMP substrate)
Assay type: biochemical
Conditions: 0.25 h, PDE5, compound at 0.5 μM; read-out: Inhibition Ratio (%) 0.5 μM
parameter: inhibition at 0.5 µM (%)

Would you please look over these solved cases?
compound	subjectOfTest	unitsLabel	inhibition at 0.5 µM
O[C@@H]1CCN(c2nc(N3CCSC3)c3nc(N4CC[C@@H](O)C4)nc(N4CCSC4)c3n2)C1 [(R)-5c]	PDE5A (Homo sapiens, UniProt O76074)	%	74
O[C@@H]1CCCN(c2nc(N3CCC(F)CC3)c3nc(N4CCC[C@@H](O)C4)nc(N4CCC(F)CC4)c3n2)C1 [(R)-6a]	PDE5A (Homo sapiens, UniProt O76074)	%	36
OC1CCN(c2nc(N3CCSC3)c3nc(N4CCC(O)CC4)nc(N4CCSC4)c3n2)CC1 [5a]	PDE5A (Homo sapiens, UniProt O76074)	%	32

a = OCCN(CCO)c1nc(N2CCC(F)CC2)c2nc(N(CCO)CCO)nc(N3CCC(F)CC3)c2n1 [4c]
b = C[C@H]1CCCN1c1nc(N(CCO)CCO)nc2c(N3CCC[C@@H]3C)nc(N(CCO)CCO)nc12 [(S)-4f]
Compare a and b by numeric inhibition at 0.5 µM and name the larger one. Record your answer as the label of the chosen record.
a
(a: 62%, b: 42%)
